Please provide measured pIC50 for the entries that follow.
target under test: T1, human IL-1α (human, UniProt P01583 113-271)
T1 construct: also called IL-1alpha; hIL-1α
T1 sequence (looked up): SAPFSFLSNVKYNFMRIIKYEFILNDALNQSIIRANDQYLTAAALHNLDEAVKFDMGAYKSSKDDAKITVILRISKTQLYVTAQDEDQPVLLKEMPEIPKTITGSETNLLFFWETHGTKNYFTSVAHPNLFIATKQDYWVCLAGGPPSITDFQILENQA
test details: Table 62 IC50; RBA presumed
Give bare numbers, as −log10 of the molar value.

Record excerpt, results attached:
ABT1-95-3 (other, VK dAb) VL: DIQMTQSPSSLSASVGDRVTITCRASQPIHGNLRWYQQKPGKAPKLLIYSSSYLQSGVPSRFSGSGSGTDFTLTISSLQPEDFATYHCQQGYRWPVTFGQGTKVEIKR	8.40
ABT1-95-101 (other, VK dAb) VL: DIQMTQSPSSLSASVGDRVTITCRASQPIVRNLRWYQQKPGKAPKLLVYSSSLLEPGVPSRFSGSGSGTDFTLTISSLQPEDFATYHCQQGYRWPVTFGQGTKVEIKR	9.30
ABT1-95-153 (other, VK dAb) VL: DIQMTQSPSSLSASVGDRVTITCRASQPIIRNLRWYQQKPGKAPKLLIYSSSYLEPGVPSRFSGSGSGTGFTLTISSLQPEDFATYHCQQGYRWPVTFGQGTKVEIKR	9.30
ABT1-95-159 (other, VK dAb) VL: DIQMTQSPSSLSASVGDRVTITCRASQPIARNLRWYQQKPGKAPKLLIYSSSYLEPGVPSRFSGSGSGTDFTLTISSLQPEDFATYHCQQVYRWPVTFGQGTKVEIKR	10.00
ABT1-95-52 (other, VK dAb) VL: DIQMTQSPSSLSASVGDRVTITCRASQPIVSNLRWYQQKPGKAPKLLIYSSSYLEPGVPSRFSGSGSGTDFTLTISSLQPEDFATYHCQQGYRWPVTFGQGTKVEIKR	9.00

pIC50 measured on ABT1-148 (other, VK dAb) VL: DIQMTQSPSSLSASVGDRVTITCRASQSISSYLNWYQQKPGKAPKLLIGALSGLQSGVPSRFSGSGSGTDFTLTISSLQPEDFATYYCMQWYRHPSTFGQGTKVEIKR = 6.40
